src = patent US12404262B2

Details: 1×PBS buffer (pH 7.4), 1.0% DMSO, 24-hour incubation at ambient temperature, maximum theoretical 100 μM; second value of the cell
value-type: pH 7 solubility (μM)

[1] CC(C)(C#Cc1ccc(-c2ccc(Cl)c3c(N(C(=O)OCCNC(=O)C(=O)O)S(C)(=O)=O)nn(CC(F)(F)F)c23)c([C@H](Cc2cc(F)cc(F)c2)NC(=O)Cn2nc(C(F)(F)F)c3c2C(F)(F)[C@@H]2C[C@H]32)n1)S(C)(=O)=O
[2] CN(CC(=O)O)C(=O)N(c1nn(CC(F)(F)F)c2c(-c3ccc(C#CC(C)(C)S(C)(=O)=O)nc3[C@H](Cc3cc(F)cc(F)c3)NC(=O)Cn3nc(C(F)(F)F)c4c3C(F)(F)[C@@H]3C[C@H]43)ccc(Cl)c12)S(C)(=O)=O
Exercise: Pick one: 1 or 2 . Which has the bigger pH 7 solubility number? Indicate your choice by writing its label.
Solution: 1
